Give measured IC50 for each item. Keep answers brief.
Target: UniProt P41597
Sequence (P41597 whole entry): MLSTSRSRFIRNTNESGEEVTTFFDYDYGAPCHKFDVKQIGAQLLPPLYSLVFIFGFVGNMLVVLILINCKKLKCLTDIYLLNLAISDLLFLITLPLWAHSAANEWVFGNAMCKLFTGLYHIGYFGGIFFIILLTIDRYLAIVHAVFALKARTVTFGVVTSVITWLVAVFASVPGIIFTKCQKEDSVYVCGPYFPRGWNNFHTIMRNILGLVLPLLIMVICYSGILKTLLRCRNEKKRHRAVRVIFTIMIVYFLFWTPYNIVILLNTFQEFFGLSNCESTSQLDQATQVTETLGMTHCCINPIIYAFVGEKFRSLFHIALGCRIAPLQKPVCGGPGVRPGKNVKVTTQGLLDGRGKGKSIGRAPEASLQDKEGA
Assay: MCP-1 Receptor Binding Assay in THP-1 Cells
Conditions: 125I labeled MCP-1 0.5 nM, 2 hours at 30° C., read-out: Inhibition of MCP-1 Binding IC50
Write the numeric value and follow it with the unit.

Task: Request the reported IC50 associated with O=C(/C=C/c1cc(F)c(F)c(F)c1)N1CCC(NN2CCC(c3c[nH]c4ccccc34)CC2)CC1 [Compound 3a]
Result: 1600 nM

Task: Request the reported IC50 associated with O=C(/C=C/c1cc(F)c(F)c(F)c1)N1CCC(N(CC(O)CO)N2CCC(c3c[nH]c4ccccc34)CC2)CC1 (stereo not drawn) [Compound 4d]
Result: 1400 nM

Task: Request the reported IC50 associated with O=C(O)C(NN1CCC(c2c[nH]c3ccccc23)CC1)C1CCN(C(=O)/C=C/c2cc(F)c(F)c(F)c2)CC1 (racemic) [Compound 5d]
Result: 640 nM

Data credit: patent US8188287B2
